pIC50: −log10 of the molar value.
Read-out record for BCL-2 (Homo sapiens): pIC50
REPORTED METRIC: pIC50

>>> reported_measurement("O=C(Cc1ccc(-n2cc(COc3cccc4ccccc34)nn2)cc1)NCc1ccccc1")
5.72
>>> reported_measurement("O=C(Cc1ccc(-n2cc(CO)nn2)cc1)NCc1ccccc1 [Comp-1]")
6.29

---

target: MCL-1 (Homo sapiens, UniProt Q07820)
Sequence (Q07820 whole entry): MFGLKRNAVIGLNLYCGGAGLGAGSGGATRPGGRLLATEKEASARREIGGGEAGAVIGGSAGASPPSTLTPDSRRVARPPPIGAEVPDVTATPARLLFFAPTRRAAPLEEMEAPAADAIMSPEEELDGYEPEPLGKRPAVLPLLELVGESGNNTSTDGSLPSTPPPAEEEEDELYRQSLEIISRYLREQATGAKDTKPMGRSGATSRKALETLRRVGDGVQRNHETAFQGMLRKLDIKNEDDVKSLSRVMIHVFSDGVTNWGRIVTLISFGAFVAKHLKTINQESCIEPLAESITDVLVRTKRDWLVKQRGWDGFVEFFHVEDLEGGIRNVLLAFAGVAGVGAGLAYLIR
A collection of molecules and their measured IC50
REPORTED METRIC: IC50 (nM)

>>> reported_measurement("O=C(Cc1ccc(-n2cc(COc3cccc4ccccc34)nn2)cc1)NCc1ccccc1")
756
>>> reported_measurement("O=C(Cc1ccc(-n2cc(CO)nn2)cc1)NCc1ccccc1 [Comp-1]")
365
